Attribute: pEC50
# Test system: human breast cancer cell line T-47D
# ASSAY_COMMENT: Caspase cascade activation (EC50), T-47D
# Assay type: cell-based
# CONDITION_DETAILS: Homo sapiens; T47D cells; caspase cascade activation; read-out: caspase potency (EC50) T47D
pEC50: −log10 of the molar value. Counter-ions that a name gives are not always drawn.

COMPOUND	VALUE_QUALIFIER	pEC50
COc1cc(-c2nnc3n2N=C(c2ccc(C)cc2)CS3)cc(OC)c1O [Example 13, hydrobromide]	=	6.20
COc1ccccc1-c1nnc2n1N=C(c1ccccc1)CS2	=	5.44
COc1ccc(C2=Nn3c(nnc3-c3ccc(Cl)cc3Cl)SC2)cc1	=	6.55
Clc1ccc(-c2nnc3n2N=C(c2ccc4c(c2)OCO4)CS3)c(Cl)c1	=	6.56
COc1ccccc1-c1nnc2n1N=C(c1cccc(C)c1)CS2	=	6.22
CCOc1ccc(C2=Nn3c(nnc3-c3ccc(OC)cc3)SC2)cc1	=	5.60
COc1ccccc1-c1nnc2n1N=C(c1ccn(C)c1)CS2	=	6.28
COc1ccc(C2=Nn3c(nnc3-c3ccccc3F)SC2)cc1	=	6.26
COc1ccc(C2=Nn3c(nnc3-c3ccc(C)cc3)SC2)cc1	=	6.27
Clc1cccc(-c2nnc3n2N=C(c2ccc4c(c2)OCO4)CS3)c1	<	5.00
COc1ccc(C2=Nn3c(nnc3-c3cccc(Cl)c3Cl)SC2)cc1	=	6.57
COc1ccc(C2=Nn3c(nnc3-c3cccc(C)c3)SC2)cc1	=	6.30
c1cc2c(cc1C1=Nn3c(nnc3C3CCCCC3)SC1)OCO2	=	5.36
Clc1ccccc1-c1nnc2n1N=C(c1ccc(Br)cc1)CS2	=	5.27
COc1ccc(-c2nnc3n2N=C(c2cc(OC)ccc2OC)CS3)cc1	=	5.61
Cc1ccc(C2=Nn3c(nnc3-c3ccccc3F)SC2)cc1	=	5.28
COc1ccccc1C1=Nn2c(nnc2-c2ccccc2OC)SC1	<	5.00
COc1ccccc1-c1nnc2n1N=C(c1ccc(N=[N+]=[N-])cc1)CS2	=	7.03
COc1cccc(-c2nnc3n2N=C(c2ccc4ccccc4c2)CS3)c1	=	5.85
COc1cc(-c2nnc3n2N=C(c2ccc(Br)cc2)CS3)cc(OC)c1OC	=	6.84

---

# Test system: human breast cancer cell line T-47D
# ASSAY_COMMENT: Caspase cascade activation (EC50), T-47D
# Format: cell-based
# CONDITION_DETAILS: Homo sapiens; T47D cells; caspase cascade activation; read-out: caspase potency (EC50) T47D
MEASUREMENT_KIND: EC50 (nM)

SMILES_RECORD	UNITS_OF_MEASURE	VALUE_QUALIFIER	VALUE
COc1ccccc1-c1nnc2n1N=C(c1ccc(C(C)C)cc1)CS2	nM	=	281
COc1cc(C)ccc1C1=Nn2c(nnc2-c2ccccc2OC)SC1	nM	=	422
Cc1ccc(-c2nnc3n2N=C(c2ccc4c(c2)OCO4)CS3)cc1	nM	=	683
Cc1ccccc1-c1nnc2n1N=C(c1ccc(C(C)(C)C)cc1)CS2	nM	>	10000
COc1ccccc1-c1nnc2n1N=C(c1ccc(NC(C)=O)c([N+](=O)[O-])c1)CS2	nM	=	476

---

# Tested on: human lymphoma cell line Raji
# ASSAY_COMMENT: Inhibition of cell proliferation (GI50), Raji
# Assay type: cell-based
# CONDITION_DETAILS: Homo sapiens; Raji cells, 48 h, CellTiter-Glo
Attribute: GI50

SMILES_RECORD	MEASUREMENT_TARGET	GI50 / nM
COc1cc(OC)cc(-c2nnc3n2N=C(c2ccc4c(c2)OCO4)CS3)c1	human lymphoma cell line Raji	53
COc1ccc(C2=Nn3c(nnc3-c3n[nH]c4c3CCC4)SC2)cc1	human lymphoma cell line Raji	1260
COc1ccc(C2=Nn3c(nnc3-c3ccc(Br)cc3)SC2)cc1	human lymphoma cell line Raji	66
COc1ccc(C2=Nn3c(nnc3-c3ccccc3Br)SC2)cc1	human lymphoma cell line Raji	85
COc1ccc(C2=Nn3c(nnc3-c3cccc(C)c3)SC2)cc1	human lymphoma cell line Raji	587

---

# Test system: human lymphoma cell line Raji
# ASSAY_COMMENT: Inhibition of cell proliferation (GI50), Raji
# Assay type: cell-based
# CONDITION_DETAILS: Homo sapiens; Raji cells, 48 h, CellTiter-Glo
Structures can show the parent of a compound that is named as a salt.
GI50 strictly less than 100 nM = Condition met. Otherwise Condition not met.

COMPOUND	DISCRETE_LABEL
COc1cc(-c2nnc3n2N=C(c2ccc4c(c2)OCO4)CS3)cc(Cl)c1OC [Example 4]	Condition met
COc1ccccc1-c1nnc2n1N=C(c1ccc(C)cc1)CS2 [Example 8, hydrochloride]	Condition met
COc1ccc(C2=Nn3c(nnc3-c3cccc(F)c3)SC2)cc1 [Example C3]	Condition not met
COc1ccc(C2=Nn3c(nnc3-c3cc(OC)c(OC)c(OC)c3)SC2)cc1OC [Example L1]	Condition not met
COc1ccc(-c2nnc3n2N=C(c2ccc(N=[N+]=[N-])cc2)CS3)cc1OC [Example 31]	Condition not met

---

# Test system: human breast cancer cell line T-47D
# ASSAY_COMMENT: Caspase cascade activation (EC50), T-47D
# Assay type: cell-based
# CONDITION_DETAILS: Homo sapiens; T47D cells; caspase cascade activation; read-out: caspase potency (EC50) T47D
pEC50: −log10 of the molar value.

COMPOUND	VALUE_QUALIFIER	pEC50
COc1cc(-c2nnc3n2N=C(c2ccccc2)CS3)cc(OC)c1OC [Example S1]	=	6.49
CCN(CC)c1ccc(C2=Nn3c(nnc3-c3ccccc3OC)SC2)cc1 [Example 23]	=	7.49
Cc1cccc(-c2nnc3n2N=C(c2ccc4c(c2)OCO4)CS3)c1 [Example T]	=	6.46
COc1ccccc1-c1nnc2n1N=C(c1ccc(N(C)C)cc1)CS2 [Example 77]	=	7.74
CCOc1ccc(-c2nnc3n2N=C(c2ccc4c(c2)OCO4)CS3)cc1 [Example H2]	<	6.00
COc1ccccc1-c1nnc2n1N=C(c1ccc3[nH]c(=O)oc3c1)CS2 [Example 47]	=	5.63
Cc1ccc(C2=Nn3c(nnc3-c3ccccc3[S+](C)[O-])SC2)cc1 (stereo not drawn) [Example 72]	<	5.00
CCOc1ccc(C2=Nn3c(nnc3-c3ccc(F)cc3)SC2)cc1 [Example P2]	=	5.67
CCOc1ccc(C2=Nn3c(nnc3-c3cccc(OCC)c3)SC2)cc1 [Example G2]	=	5.20
CCOc1ccc(C2=Nn3c(nnc3-c3ccccc3C)SC2)cc1 [L]	=	5.87
Cc1ccc(C2=Nn3c(nnc3-c3ccccc3C)SC2)cc1 [Example 70]	=	6.26
COc1ccccc1-c1nnc2n1N=C(c1ccc3c(c1)OCO3)CS2 [V]	=	7.21
Cc1ccc(C2=Nn3c(nnc3-c3snnc3C)SC2)cc1 [Example 93]	<	5.00
COc1ccccc1-c1nnc2n1N=C(c1ccc(NC(C)C)cc1)CS2 [Example 80]	=	6.73
COc1ccccc1-c1nnc2n1N=C(c1ccc(C#N)cc1)CS2 [Example 87]	=	5.48
COc1ccc(C2=Nn3c(nnc3-c3ccc(Br)cc3)SC2)cc1 [Example E3]	=	6.61
COc1ccc(-c2nnc3n2N=C(c2ccc([N+](=O)[O-])cc2)CS3)cc1OC [Example 28]	<	5.00
COc1cc(-c2n[nH]c3nc(=O)c(-c4ccc(C)cc4)nn23)cc(OC)c1OC [Example 37]	=	5.23

---

Attribute: pEC50
# System: human breast cancer cell line T-47D
# ASSAY_COMMENT: Caspase cascade activation (EC50), T-47D
# Format: cell-based
# CONDITION_DETAILS: Homo sapiens; T47D cells; caspase cascade activation; read-out: caspase potency (EC50) T47D
pEC50: −log10 of the molar value. Counter-ions that a name gives are not always drawn.
MEASUREMENT_KIND: pEC50

COMPOUND	MEASUREMENT_KIND	VALUE_QUALIFIER	VALUE
COc1ccccc1-c1nnc2n1N=C(c1ccc(OC)c(OC)c1OC)CS2	pEC50	=	6.47
COc1ccccc1-c1nnc2n1N=C(c1ccc(Cl)c([N+](=O)[O-])c1)CS2	pEC50	=	5.69
COc1ccccc1-c1nnc2n1N=C(c1ccc(O)cc1)CS2 [Example 7, hydrobromide]	pEC50	=	6.76
Cc1ccc(C2=Nn3c(nnc3-c3ccccc3S(C)(=O)=O)SC2)cc1	pEC50	<	5.00
CCN(CC)c1ccc(C2=Nn3c(nnc3-c3cc(OC)cc(OC)c3)SC2)cc1	pEC50	=	6.53
COc1ccc(C2=Nn3c(nnc3-c3ccccc3C)SC2)cc1	pEC50	=	6.72
Clc1ccccc1-c1nnc2n1N=C(c1ccc3c(c1)OCO3)CS2	pEC50	=	6.63
COc1cc(-c2nnc3n2N=C(c2ccc(C)cc2)CS3)cc(OC)c1OC	pEC50	=	6.93
Cc1cccc(-c2nnc3n2N=C(c2ccc4ccccc4c2)CS3)c1	pEC50	=	5.26

---

# Test system: human cancer cell line H1299
# ASSAY_COMMENT: Caspase cascade activation (EC50), H1299
# Format: cell-based
# CONDITION_DETAILS: NCI-H1299, H1299 cells, read-out: caspase potency (EC50) H1299
pEC50: −log10 of the molar value.

MOLECULE	MEASUREMENT_TARGET	VALUE_QUALIFIER	pEC50
Clc1ccc(-c2nnc3n2N=C(c2ccc4c(c2)OCO4)CS3)cc1 [G]	human cancer cell line H1299	=	5.85
COc1ccc(-c2nnc3n2N=C(c2cc(OC)ccc2OC)CS3)cc1 [H]	human cancer cell line H1299	=	5.62
COc1ccc(C2=Nn3c(nnc3-c3ccc(C)cc3)SC2)cc1OC [A]	human cancer cell line H1299	=	5.56
COc1ccc(C2=Nn3c(nnc3-c3ccc(Cl)cc3)SC2)cc1OC [E]	human cancer cell line H1299	=	5.68
CC(C)Oc1cccc(-c2nnc3n2N=C(c2ccc4c(c2)OCO4)CS3)c1 [Example R1]	human cancer cell line H1299	<	5.00
CCOc1ccc(C2=Nn3c(nnc3-c3cc(OC)c(OC)c(OC)c3)SC2)cc1 [Example T1]	human cancer cell line H1299	=	5.59
COc1cc(-c2nnc3n2N=C(c2ccccc2)CS3)cc(OC)c1OC [Example S1]	human cancer cell line H1299	=	5.90
CCOc1ccc(C2=Nn3c(nnc3-c3ccc(Cl)cc3)SC2)cc1 [F]	human cancer cell line H1299	=	6.56
Clc1ccccc1-c1nnc2n1N=C(c1ccc3c(c1)OCO3)CS2 [Example P]	human cancer cell line H1299	=	6.43
Clc1ccccc1-c1nnc2n1N=C(c1ccc(Br)cc1)CS2 [Q]	human cancer cell line H1299	=	5.29
COc1ccc(C2=Nn3c(nnc3-c3ccccc3C)SC2)cc1OC [K]	human cancer cell line H1299	=	6.16
CCOc1ccc(C2=Nn3c(nnc3-c3ccc(C)cc3)SC2)cc1 [B]	human cancer cell line H1299	=	5.90
COc1ccc(C2=Nn3c(nnc3-c3cccc(OC)c3)SC2)cc1 [Example X]	human cancer cell line H1299	=	6.17
COc1cccc(-c2nnc3n2N=C(c2ccc4c(c2)OCO4)CS3)c1 [Example A1]	human cancer cell line H1299	=	5.60
COc1ccc(-c2nnc3n2N=C(c2ccc4c(c2)OCO4)CS3)cc1 [J]	human cancer cell line H1299	=	5.53
Clc1cccc(-c2nnc3n2N=C(c2ccc4c(c2)OCO4)CS3)c1 [S]	human cancer cell line H1299	<	5.00
CCOc1ccc(C2=Nn3c(nnc3-c3ccccc3OC)SC2)cc1 [Example B2]	human cancer cell line H1299	=	6.97
CCOc1ccc(-c2nnc3n2N=C(c2ccc4c(c2)OCO4)CS3)cc1 [Example H2]	human cancer cell line H1299	<	6.00
COc1ccc(C2=Nn3c(nnc3-c3ccc(Cl)cc3Cl)SC2)cc1OC [Example G1]	human cancer cell line H1299	=	6.56
CCOc1ccc(C2=Nn3c(nnc3-c3ccccc3Cl)SC2)cc1 [O]	human cancer cell line H1299	=	6.00
COc1ccc(C2=Nn3c(nnc3-c3cc(OC)c(OC)c(OC)c3)SC2)cc1OC [Example L1]	human cancer cell line H1299	=	6.24
CCOc1cccc(-c2nnc3n2N=C(c2ccc(OC)cc2)CS3)c1 [Example D1]	human cancer cell line H1299	=	5.57
COc1ccc(C2=Nn3c(nnc3-c3ccc(Cl)cc3)SC2)cc1 [D]	human cancer cell line H1299	=	6.85
COc1cc(-c2nnc3n2N=C(c2ccc4c(c2)OCO4)CS3)cc(OC)c1OC [Example M1]	human cancer cell line H1299	=	7.17
COc1ccc(C2=Nn3c(nnc3-c3ccc(OC)c(OC)c3)SC2)cc1OC [Example N1]	human cancer cell line H1299	=	5.62
Cc1cccc(-c2nnc3n2N=C(c2ccc4ccccc4c2)CS3)c1 [U]	human cancer cell line H1299	=	5.45
CCOc1ccc(C2=Nn3c(nnc3-c3ccc(Cl)cc3Cl)SC2)cc1 [Example H1]	human cancer cell line H1299	=	5.70
COc1ccc(C2=Nn3c(nnc3-c3ccccc3Cl)SC2)cc1OC [N]	human cancer cell line H1299	=	6.12
CCOc1cccc(-c2nnc3n2N=C(c2ccc(O)c(O)c2)CS3)c1 [Example C1]	human cancer cell line H1299	=	5.88
Cc1cccc(-c2nnc3n2N=C(c2ccc4c(c2)OCO4)CS3)c1 [Example T]	human cancer cell line H1299	=	5.91
CCOc1ccc(C2=Nn3c(nnc3-c3cccc(OC)c3)SC2)cc1 [Z]	human cancer cell line H1299	=	5.63
CCOc1ccc(C2=Nn3c(nnc3-c3ccc(OC)cc3)SC2)cc1 [I]	human cancer cell line H1299	=	5.74
COc1ccc(C2=Nn3c(nnc3-c3ccccc3OC)SC2)cc1OC [Example K1]	human cancer cell line H1299	=	6.43
Cc1ccccc1-c1nnc2n1N=C(c1ccc3c(c1)OCO3)CS2 [Example M]	human cancer cell line H1299	=	6.38
CCOc1ccc(C2=Nn3c(nnc3-c3ccccc3C)SC2)cc1 [L]	human cancer cell line H1299	=	6.47
COc1ccccc1-c1nnc2n1N=C(c1ccc(Br)cc1)CS2 [W]	human cancer cell line H1299	=	6.26
Clc1ccc(-c2nnc3n2N=C(c2ccc4c(c2)OCO4)CS3)c(Cl)c1 [Example I1]	human cancer cell line H1299	=	5.86
COc1cccc(-c2nnc3n2N=C(c2ccc4ccccc4c2)CS3)c1 [Example B1]	human cancer cell line H1299	=	5.77
Clc1ccc(-c2nnc3n2N=C(c2ccccc2)CS3)c(Cl)c1 [Example J1]	human cancer cell line H1299	=	5.59
COc1ccc(C2=Nn3c(nnc3-c3cccc(Cl)c3)SC2)cc1 [R]	human cancer cell line H1299	=	6.26
COc1cccc(-c2nnc3n2N=C(c2ccc(OC)c(OC)c2)CS3)c1 [Y]	human cancer cell line H1299	=	5.55
CCOc1ccc(-c2nnc3n2N=C(c2ccc(O)c(O)c2)CS3)cc1 [Example F1]	human cancer cell line H1299	=	5.58
